Source: paper PMC7878818

# assay-target: Spindlin1 Y98A/C11orf84 complex (human, UniProt Q9Y657 50-262; Q9BUA3 1-381, Y98A)
# Sequence (Q9Y657 50-262 Y98A, chain 1 of 2): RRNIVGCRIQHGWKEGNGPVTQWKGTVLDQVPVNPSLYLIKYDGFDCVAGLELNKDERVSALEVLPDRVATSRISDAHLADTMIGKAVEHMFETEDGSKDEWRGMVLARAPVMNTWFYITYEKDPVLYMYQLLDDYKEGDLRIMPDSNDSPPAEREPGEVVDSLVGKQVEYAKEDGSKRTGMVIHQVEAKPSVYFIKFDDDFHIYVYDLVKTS
# Sequence (Q9BUA3 whole entry, chain 2 of 2): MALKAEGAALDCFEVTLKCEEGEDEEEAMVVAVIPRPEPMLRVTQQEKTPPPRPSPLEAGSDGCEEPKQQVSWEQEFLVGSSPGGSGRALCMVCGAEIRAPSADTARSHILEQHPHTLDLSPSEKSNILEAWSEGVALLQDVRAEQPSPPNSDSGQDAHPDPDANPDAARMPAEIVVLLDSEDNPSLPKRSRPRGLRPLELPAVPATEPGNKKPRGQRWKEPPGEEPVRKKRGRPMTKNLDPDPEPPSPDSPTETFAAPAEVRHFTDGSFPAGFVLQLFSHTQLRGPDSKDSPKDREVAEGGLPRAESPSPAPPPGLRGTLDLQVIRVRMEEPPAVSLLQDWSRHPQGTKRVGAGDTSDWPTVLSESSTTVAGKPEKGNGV
# protocol-notes: ITC
Ends that are not written are not given here. Me3 = trimethyl group on lysine (trimethyl-lysine)
quantity-measured: pKd
Units for pKd: none; it is -log10 of a concentration expressed in mol/L.

So what does the record say about pKd for ARTK(Me3)QTARK(Me3)STG [H3K4me3K9me3 peptide] ?
7.10
